Tested on: MalR1 (Bifidobacterium breve UCC2003), ORF:82221dfa
Sequence: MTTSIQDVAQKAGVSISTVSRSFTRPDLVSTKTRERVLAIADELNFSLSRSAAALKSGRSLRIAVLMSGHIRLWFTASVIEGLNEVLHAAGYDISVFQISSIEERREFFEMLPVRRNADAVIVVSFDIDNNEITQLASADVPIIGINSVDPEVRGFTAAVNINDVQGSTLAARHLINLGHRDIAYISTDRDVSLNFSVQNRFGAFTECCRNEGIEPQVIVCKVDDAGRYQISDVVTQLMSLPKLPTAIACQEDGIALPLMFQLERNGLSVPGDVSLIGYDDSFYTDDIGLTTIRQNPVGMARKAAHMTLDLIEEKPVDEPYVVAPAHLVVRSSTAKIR
Assay: EMSA
Settings: EMSA: binding buffer stock 80 mM Tris-HCl pH 8.0, 20 mM MgCl2, 2 mM DTT, 4 mM EDTA, 400 mM KCl, 40% glycerol (final dilution not stated); poly(dI-dC) …
Listed here are sequences together with their documented binding signal.

record sequence | study target | binding signal [% bound]
GCGTTCTATCCTTGCACTGAGCCACGAAAGACGGCATTGTGCAAACGATGGCATACTGTGGGATGCGGAATGACAAGACATGTGATACTCTCTGACTGAGAACGTATGCAACAACTGTCTGCCAACGCTGTTACAGAGAGTTCATGCACACGTTTATGCGACGATACCAATCGCGCGGCATAATAAGCACGGGCACTTATCCCGGAAGGAAAGTCAGAATG (double strand) [glgP1 promoter] | MalR1 (Bifidobacterium breve UCC2003), ORF:82221dfa | 0
CGACAGCTTCCTTGCCATGCTGGCCCTCCTTTATTTTCCAACCCTCGGTTTTCCGCATTGTGCAATCTGCATTGTTTGCCTTGCGGAATCTTAGGAAATTATTTTCCTAAAATGTTTTCTTGAGATAAGATTATAGGACGCCAACGTCAGTGTCAACACGGCGGGTCGAGGGTCGCACAACCCGGACCGAACGGCCCACAATGGCGACGTAGCAAGGAACAGAACGCTACGCCCTTGTACACTGATACAGAGGAAAACAGGCAGGAGGGGAGACATGAACATCAGGGACATCGCACGC (double strand) [Bbr_1841 promoter] | MalR1 (Bifidobacterium breve UCC2003), ORF:82221dfa | 0
GGTCAAGCTCATCGTGCGGGGCAGCTGTGGGTGCTGATTATTTCTTGAAGAAGGCTAAATAAGGCTTTTGAGACCTCCTGCAGGGGAGTCACTGTTGATGCTGTTTCGTCGTGTCGAATCGGTTCGCGAGTTGACAAACAAAAAACTATGCGCTTAAATATTAATCACAATCTACGCGGTTAGATTGTTGAGAAGTAACAGTTCAAGGAGGAACGAGGAATGAAGCGAAGCATGTTCAAGATGGCGACTGCCATCATCGCCAGTGCGGCTATGCTGACCAG (double strand) [Bbr_1658 promoter] | MalR1 (Bifidobacterium breve UCC2003), ORF:82221dfa | 0

* * *

System: MalR1 (Bifidobacterium breve UCC2003), ORF:82221dfa
Sequence: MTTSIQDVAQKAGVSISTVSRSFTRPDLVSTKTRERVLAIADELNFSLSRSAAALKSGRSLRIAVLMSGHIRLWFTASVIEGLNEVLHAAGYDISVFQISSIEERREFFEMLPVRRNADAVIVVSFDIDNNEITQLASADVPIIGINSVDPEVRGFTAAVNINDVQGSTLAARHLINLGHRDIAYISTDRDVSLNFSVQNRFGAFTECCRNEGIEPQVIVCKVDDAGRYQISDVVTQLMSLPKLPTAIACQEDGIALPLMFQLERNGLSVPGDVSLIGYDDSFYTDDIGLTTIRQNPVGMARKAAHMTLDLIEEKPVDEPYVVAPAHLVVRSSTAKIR
Experiment: EMSA
Details: EMSA: binding buffer stock 80 mM Tris-HCl pH 8.0, 20 mM MgCl2, 2 mM DTT, 4 mM EDTA, 400 mM KCl, 40% glycerol (final dilution not stated); poly(dI-dC) …

record sequence | study target | binding signal
GGTTGTCGTAATCCTCGGTGGAAGGACCGATGGTGTCTACGATCTTGGCTTTACGCATGAATGCCTGCCTATTCTTGTTCTTTTTTGGTTCGAGGCGCGATTGCCTCACTTGCCGCAGCCCAGTCTACTAGCGCAGACCGGCTCATGACAAGTTTATTCCCCGGTGTGTTGTGAGCGCTCACACTGTTGCGCCGATTGGGTTTTGAGGGGTTGATTTCCCTATGATTTCAGGCCTTCTCAGCG (double strand) [pyk promoter] | MalR1 (Bifidobacterium breve UCC2003), ORF:82221dfa | binds
CGAATGCCATATCCGTCTCCTCCTTGCGGCTTACTGCAGCGTTAGAAATGCACAATTCAAATGTACCCTTCTTATAACCGACGCCCGCAAGGTCGTGTCATGCGTCAAACTCTTTTACTGCAGACATTTTTGAGGCTTCTGCTGTTTTCGTGGGCTAGCTGACTGGTTCCGGTAGTCGGATGTCGAGTCCGCCGCATCTGAGCATGATC (double strand) [Bbr_1420 promoter] | MalR1 (Bifidobacterium breve UCC2003), ORF:82221dfa | < 15 % bound
GATGAGTGCGCGTGAGAAGAAGAAGGCTGCCGTAGAAGCGAAATAATCGGTGCATGGCCGCTCTGCAGATATATGGAGGGCGGTCTGCGAACCGCCGGGAATGGGTTGCCAATCCCGGCGGTTTGTGTATCCGTGGCGCAGTACAGTCGTAAAGGAAGGCAAGGAGGACAACCATGGCGGAAGGTGTACCGAAGTATATTGCGGTTAGGGACAATCTTCGCCAGCGTG (double strand) [gntR promoter] | MalR1 (Bifidobacterium breve UCC2003), ORF:82221dfa | 0 % bound

* * *

Tested on: AraQ (Bifidobacterium breve UCC2003), ORF:c628000b
Sequence: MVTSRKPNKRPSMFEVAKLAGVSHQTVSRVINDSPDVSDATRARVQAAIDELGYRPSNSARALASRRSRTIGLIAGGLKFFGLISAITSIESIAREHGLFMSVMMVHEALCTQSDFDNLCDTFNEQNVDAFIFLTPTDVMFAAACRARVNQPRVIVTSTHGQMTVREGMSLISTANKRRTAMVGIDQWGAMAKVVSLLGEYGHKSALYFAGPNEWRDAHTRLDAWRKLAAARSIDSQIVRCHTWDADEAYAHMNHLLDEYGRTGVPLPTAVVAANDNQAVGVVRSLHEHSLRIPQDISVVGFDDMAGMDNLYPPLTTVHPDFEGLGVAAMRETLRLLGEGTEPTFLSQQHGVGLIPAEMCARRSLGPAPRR
Assay: EMSA
Conditions: EMSA: binding buffer stock 80 mM Tris-HCl pH 8.0, 20 mM MgCl2, 2 mM DTT, 4 mM EDTA, 400 mM KCl, 40% glycerol (final dilution not stated); poly(dI-dC) …
Listed here are sequences together with their documented binding signal.

record sequence | binding signal / % bound
CTTCGCCACGTCATACACCGTTGCCCTACGCATGATTCCTACTTTAATCGATTCCGGAGGTCAGCACACGTTCGACCTGAATCTAAAAAAAGTTTTAGTGGCTTTCCTGTCAATCTCGCATGCATACTTCAGGTTACGGGCGCAGCACCCAATAATGGGTACCGCGCCTTAATGACCGCTACACGAGCAGTCTCAGCAACTGGTAAAGCTGCCATAGGCTGCGCACGTTG (double strand) [Bbr_1659 promoter] | 0
GGTCAAGCTCATCGTGCGGGGCAGCTGTGGGTGCTGATTATTTCTTGAAGAAGGCTAAATAAGGCTTTTGAGACCTCCTGCAGGGGAGTCACTGTTGATGCTGTTTCGTCGTGTCGAATCGGTTCGCGAGTTGACAAACAAAAAACTATGCGCTTAAATATTAATCACAATCTACGCGGTTAGATTGTTGAGAAGTAACAGTTCAAGGAGGAACGAGGAATGAAGCGAAGCATGTTCAAGATGGCGACTGCCATCATCGCCAGTGCGGCTATGCTGACCAG (double strand) [Bbr_1658 promoter] | 0

* * *

Tested on: AraQ (Bifidobacterium breve UCC2003), ORF:c628000b
Sequence: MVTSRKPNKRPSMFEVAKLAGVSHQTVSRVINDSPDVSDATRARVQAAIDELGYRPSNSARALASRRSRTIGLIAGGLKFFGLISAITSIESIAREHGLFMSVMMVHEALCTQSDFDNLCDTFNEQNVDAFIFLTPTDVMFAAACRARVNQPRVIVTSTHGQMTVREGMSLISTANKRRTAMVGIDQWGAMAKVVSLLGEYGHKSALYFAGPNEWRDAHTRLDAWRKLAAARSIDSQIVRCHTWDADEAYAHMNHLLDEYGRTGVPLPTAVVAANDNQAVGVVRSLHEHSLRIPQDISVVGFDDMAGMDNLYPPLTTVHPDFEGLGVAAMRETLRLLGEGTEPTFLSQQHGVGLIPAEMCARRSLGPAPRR
Test: EMSA
Conditions: EMSA: binding buffer stock 80 mM Tris-HCl pH 8.0, 20 mM MgCl2, 2 mM DTT, 4 mM EDTA, 400 mM KCl, 40% glycerol (final dilution not stated); poly(dI-dC) …

record sequence | study target | binding signal
GCTCGCTTTTGCCATGGCAACCTCGCTCATCAACAGTGGATAACAATCCCGCTCAAAAGACAACGTTATCATACCTAAGCGAGCAACATGCACGCCACGCTGTCTATTTAGAAGTGCAACGCCCCTGTTCGTCGGCTAATTCTTGCAGTTCGTCGGTGAATGCCCCGGGCCCCCGGATTCAACTTGTAAGTGCAACGGCTGGTTTCGG (double strand) [malR2 promoter] | AraQ (Bifidobacterium breve UCC2003), ORF:c628000b | binds
CGAATGCCATATCCGTCTCCTCCTTGCGGCTTACTGCAGCGTTAGAAATGCACAATTCAAATGTACCCTTCTTATAACCGACGCCCGCAAGGTCGTGTCATGCGTCAAACTCTTTTACTGCAGACATTTTTGAGGCTTCTGCTGTTTTCGTGGGCTAGCTGACTGGTTCCGGTAGTCGGATGTCGAGTCCGCCGCATCTGAGCATGATC (double strand) [Bbr_1420 promoter] | AraQ (Bifidobacterium breve UCC2003), ORF:c628000b | 0 % bound
GATGAGTGCGCGTGAGAAGAAGAAGGCTGCCGTAGAAGCGAAATAATCGGTGCATGGCCGCTCTGCAGATATATGGAGGGCGGTCTGCGAACCGCCGGGAATGGGTTGCCAATCCCGGCGGTTTGTGTATCCGTGGCGCAGTACAGTCGTAAAGGAAGGCAAGGAGGACAACCATGGCGGAAGGTGTACCGAAGTATATTGCGGTTAGGGACAATCTTCGCCAGCGTG (double strand) [gntR promoter] | AraQ (Bifidobacterium breve UCC2003), ORF:c628000b | 0 % bound
GGTTGTCGTAATCCTCGGTGGAAGGACCGATGGTGTCTACGATCTTGGCTTTACGCATGAATGCCTGCCTATTCTTGTTCTTTTTTGGTTCGAGGCGCGATTGCCTCACTTGCCGCAGCCCAGTCTACTAGCGCAGACCGGCTCATGACAAGTTTATTCCCCGGTGTGTTGTGAGCGCTCACACTGTTGCGCCGATTGGGTTTTGAGGGGTTGATTTCCCTATGATTTCAGGCCTTCTCAGCG (double strand) [pyk promoter] | AraQ (Bifidobacterium breve UCC2003), ORF:c628000b | binds
